test: Human HepG2 cell viability assay in 384 well format; format: toxicity, cell-based; set-up: dose 125 nL, time 70.5 hour; concentration not given beside the values; settings: HepG2 cells, read-out: Inhibition
endpoint label: cytotoxicity at 70.5 h (%)
One number for each entry, in %.

// solved cases for cytotoxicity at 70.5 h follow
> print(dat)
                                   molecule          endpoint.label  observed.measurement
1  CCN1CCCC1CN(CCN(C)C)S(=O)(=O)c1cccc(C#N)c1 (stereo unspecified)  cytotoxicity at 70.5 h                 -1.36
2  CCCc1cc(N2CCCC2Cn2nc(C)cc2C)n2ncnc2n1 (stereo unspecified)  cytotoxicity at 70.5 h                 -5.55
3  COCCN1CCCC(c2cncc(Oc3ccccc3OC)n2)C1 (stereo unspecified)  cytotoxicity at 70.5 h                  -3.1
4      CNS(=O)(=O)c1ccc(CNC(=O)NCC2CCC2)cc1  cytotoxicity at 70.5 h                  -8.5
5  CNc1cc(C)nc(N2C[C@H](NC(=O)C3CCOCC3)[C@@H](C3CC3)C2)n1  cytotoxicity at 70.5 h                  1.67

# input for lookup
Prompt line: Using the record for O=C(NCc1ccc2c(c1)OCO2)c1ccccc1C1CCNC1 (stereo unspecified) , state its measured cytotoxicity at 70.5 h.
Response line: 38

* * *

test: Human HepG2 cell viability assay in 384 well format; type: toxicity, cell-based; set-up: dose 125 nL, time 70.5 hour; concentration not given beside the values; settings: HepG2 cells, read-out: Inhibition
endpoint label: cytotoxicity at 70.5 h (%)
Give bare numbers, in %.

> print(dat)
                                   compound          endpoint.label  display.unit  observed.measurement
1  Cc1nnc(NC(=O)CN(C)C2CCCN(c3cccnn3)C2)s1 (centres undefined)  cytotoxicity at 70.5 h             %                  1.26
2      O=c1cc2c(nn1CN1CCC(c3ccccc3)CC1)CCC2  cytotoxicity at 70.5 h             %                 -17.6
3  Cc1nc(C)n(CC2CCCN(CC(=O)N3CCCC3)C2)n1 (centres undefined)  cytotoxicity at 70.5 h             %                 -4.82

State the recorded cytotoxicity at 70.5 h for every item in the following list.
1. CN(C)c1ccc(NC(=O)NCC2CCOC2)cn1 (centres undefined)
2. CCc1nc(C2CCCN(C(=O)c3c(C)noc3C)C2)no1 (centres undefined)
3. CC(C)Cn1ncc(C(=O)NS(=O)(=O)C2CCCC2)c1C1CC1
4. CCc1nc(C2CCCN2Cc2nnc(Cc3ccccc3)o2)no1 (centres undefined)
5. COc1cccc(OC2CN(C(=O)c3sccc3C)C2)c1
6. Cc1noc(C)c1CCC(=O)N1CCn2cccc2C1C (centres undefined)
7. Cc1ccc(-n2ccnc2)c(C(=O)NCCOCC2CCCO2)c1 (centres undefined)

Response line:
[-9.11, 20.6, -8.4, -10.8, -4.06, -0.947, -1.48]

# map each compound to its cytotoxicity at 70.5 h
1. Cc1nc(-c2ccc(S(=O)(=O)N3CCC4(CC3)OCCO4)cc2)co1
2. COC(=O)CNC(=O)c1ccc(OC2CCN(S(C)(=O)=O)CC2)c(Cl)c1
3. COc1ccc(C[C@H]2CN(C(=O)c3ccn(C)n3)CC[C@H]2OC)cc1
4. Cn1cc(C(=O)N2CCCC(n3cccn3)C2)c2ccccc21 (centres undefined)
5. O=C(CC1CCCC1)Nc1ccc(-n2cc(Br)cn2)nc1
6. COc1cccc2c1OCC(NC(=O)NCCC(N)=O)C2 (centres undefined)

Response line:
[-7.29, -4.88, -0.598, 0.858, -2.32, -7.75]
